Target of assay: trypsin from bovine pancreas (Bos taurus)
Construct: from tissue; host or cells: bovine pancreas
Sequence (P00760 24-246): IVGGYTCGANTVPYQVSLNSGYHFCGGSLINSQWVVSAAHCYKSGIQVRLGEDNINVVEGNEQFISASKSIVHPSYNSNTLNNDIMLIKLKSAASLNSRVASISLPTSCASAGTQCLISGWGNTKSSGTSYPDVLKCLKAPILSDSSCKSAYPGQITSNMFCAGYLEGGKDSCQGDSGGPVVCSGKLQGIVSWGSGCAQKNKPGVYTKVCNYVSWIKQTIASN
Test method notes: Determination of the specificity of the inhibitors: Ki of trypsin, substrate Chromozyme TRY
Assay type: biochemical
Condition set: ratio Ki trypsin / Ki thrombin
Classes are defined on Specificity Try/Thr with ranges bottom bin = under 300, middle bin = from 300 up to 4000, top bin = 4000 and over

Please review the entries below; each comes with its answer.
COc1cc(C)c(S(=O)(=O)N[C@@H](CC(=O)N[C@@H]2O[C@H](CO)[C@@H](O)[C@H](O)[C@H]2O)C(=O)N[C@H](Cc2ccc(C(=N)N)cc2)C(=O)N2CCCCC2)c(C)c1C.Cl ... top bin
COC(=O)C1OC(NC(=O)C[C@H](NS(=O)(=O)c2c(C)cc(OC)c(C)c2C)C(=O)N[C@H](Cc2ccc(C(=N)N)cc2)C(=O)N2CCCCC2)C(OC(C)=O)C(OC(C)=O)C1OC(C)=O.Cl (stereo partly shown) ... bottom bin
COc1cc(C)c(S(=O)(=O)N[C@@H](CC(=O)N[C@@H]2O[C@H](CO)[C@@H](O)[C@H](O)[C@H]2NC(C)=O)C(=O)N[C@H](Cc2ccc(C(=N)N)cc2)C(=O)N2CCCCC2)c(C)c1C.Cl ... middle bin
COc1cc(C)c(S(=O)(=O)N[C@@H](CC(=O)N[C@@H]2O[C@H](CO)[C@H](O)[C@H](O)[C@H]2NC(C)=O)C(=O)N[C@H](Cc2ccc(C(=N)N)cc2)C(=O)N2CCCCC2)c(C)c1C.Cl ... bottom bin
COc1cc(C)c(S(=O)(=O)N[C@@H](CC(=O)N[C@@H]2O[C@H](COC(C)=O)[C@@H](OC(C)=O)[C@H](OC(C)=O)[C@H]2OC(C)=O)C(=O)N[C@H](Cc2ccc(C(=N)N)cc2)C(=O)N2CCCCC2)c(C)c1C.Cl ... bottom bin
COc1cc(C)c(S(=O)(=O)N[C@@H](CC(=O)O)C(=O)N[C@H](Cc2ccc(C(=N)N)cc2)C(=O)N2CCCCC2)c(C)c1C.Cl ... bottom bin
COc1cc(C)c(S(=O)(=O)N[C@@H](CC(=O)N[C@H]2O[C@@H](C)[C@@H](O)[C@@H](O)[C@@H]2O)C(=O)N[C@H](Cc2ccc(C(=N)N)cc2)C(=O)N2CCCCC2)c(C)c1C.Cl ... top bin
COc1cc(C)c(S(=O)(=O)N[C@@H](CO[C@@H]2OC[C@@H](O)[C@@H](O)[C@H]2O)C(=O)N[C@H](Cc2ccc(C(=N)N)cc2)C(=O)N2CCCCC2)c(C)c1C.I ... middle bin

Here is another compound to look at.
Field: class (Specificity Try/Thr) — entry: COc1cc(C)c(S(=O)(=O)N[C@@H](CC(=O)N[C@@H]2O[C@H](CO)[C@H](O)[C@H](O)[C@H]2O)C(=O)N[C@H](Cc2ccc(C(=N)N)cc2)C(=O)N2CCCCC2)c(C)c1C.Cl
top bin

---

System: CD rats
Test method notes: Determination of the acute toxicity
Type: in vivo, rat
Condition set: i.v., survival on day 1, Litchfield & Wilcoxon method
Measured quantity: LD50 (rat) (mg/kg)
Enter your answer as a number in mg/kg; do not include the unit.

Solved cases below.
COc1cc(C)c(S(=O)(=O)N[C@@H](CC(=O)N[C@@H]2O[C@H](CO)[C@@H](O)[C@H](O)[C@H]2O)C(=O)N[C@H](Cc2ccc(C(=N)N)cc2)C(=O)N2CCCCC2)c(C)c1C.Cl ... 45
COc1cc(C)c(S(=O)(=O)N[C@@H](CC(=O)O)C(=O)N[C@H](Cc2ccc(C(=N)N)cc2)C(=O)N2CCCCC2)c(C)c1C.Cl ... 62

Notebook entry, CD rats assay: LD50 (rat) of COc1cc(C)c(S(=O)(=O)N[C@@H](CO[C@@H]2OC[C@@H](O)[C@@H](O)[C@H]2O)C(=O)N[C@H](Cc2ccc(C(=N)N)cc2)C(=O)N2CCCCC2)c(C)c1C.I = ?
60

Notebook entry, CD rats assay: LD50 (rat) of COc1cc(C)c(S(=O)(=O)N[C@@H](CC(=O)N[C@@H]2O[C@H](CO)[C@H](O)[C@H](O)[C@H]2O)C(=O)N[C@H](Cc2ccc(C(=N)N)cc2)C(=O)N2CCCCC2)c(C)c1C.Cl = ?
50

Notebook entry, CD rats assay: LD50 (rat) of COc1cc(C)c(S(=O)(=O)N[C@@H](CC(=O)N[C@@H]2O[C@H](C(=O)O)[C@@H](O)[C@H](O)[C@H]2O)C(=O)N[C@H](Cc2ccc(C(=N)N)cc2)C(=O)N2CCCCC2)c(C)c1C.Cl = ?
51

Notebook entry, CD rats assay: LD50 (rat) of COc1cc(C)c(S(=O)(=O)N[C@@H](CC(=O)N[C@H]2O[C@@H](C)[C@@H](O)[C@@H](O)[C@@H]2O)C(=O)N[C@H](Cc2ccc(C(=N)N)cc2)C(=O)N2CCCCC2)c(C)c1C.Cl = ?
52

Recorded values, source patent US5556941A.
